molecular target: Rabies virus glycoprotein G, ERA strain (attenuated vaccine strain, ATCC VR332) (Rabies virus, ERA strain (genotype 1 lyssavirus)) (UniProt P03524); assay: cell-based or functional assay
Sequence (P03524 20-524 limits assumed): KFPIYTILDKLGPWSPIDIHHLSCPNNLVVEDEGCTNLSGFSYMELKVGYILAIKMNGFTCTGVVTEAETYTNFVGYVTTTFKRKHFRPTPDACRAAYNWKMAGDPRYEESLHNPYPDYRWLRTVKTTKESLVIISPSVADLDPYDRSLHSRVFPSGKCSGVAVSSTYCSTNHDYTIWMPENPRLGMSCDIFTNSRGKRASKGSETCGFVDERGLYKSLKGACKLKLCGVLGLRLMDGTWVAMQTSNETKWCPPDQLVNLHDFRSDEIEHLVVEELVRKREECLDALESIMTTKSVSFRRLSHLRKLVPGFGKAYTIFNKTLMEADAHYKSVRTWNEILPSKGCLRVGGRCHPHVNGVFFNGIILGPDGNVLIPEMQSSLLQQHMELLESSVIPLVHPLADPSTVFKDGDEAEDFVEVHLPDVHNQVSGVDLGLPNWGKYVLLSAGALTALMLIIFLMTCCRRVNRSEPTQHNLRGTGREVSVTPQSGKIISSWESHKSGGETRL
propertyLabel: ERA neutralizing antibody titer (RFFIT): EU/mg

[[record]]
binder = "LG214A8 (VHH) VHH: EVQLVKSGGGSVQAGGSLRLSCAASGGTFNPYVMAWFRQAPGNEREFVARIRWSGGDAYYDDSVKGRFAITRDAAKNTVHLQMNSLKPEDTAVYYCAAATYGYGSYTYGGSYDLWGQGTQVTVSS"
result = "< 0.43 EU/mg"

[[record]]
binder = "LG213D6 (VHH) VHH: EVQLVESGGGLVQPGGSLRLSCAASGFTFGDSDMSWVRQAPGEGPEWVAGINSGGGSTVYADSVKGRFTISRDNAKNMLYLQMNSLKPEDTAVYLCAQGLMAEVTAGYWGQGTQVTVSS"
result = "< 0.48 EU/mg"

[[record]]
binder = "LG214E8 (VHH) VHH: EVQLVESGGGSVQAGGSLRLSCAASGGTFNPYVMAWFRQAPGNEREFVARIRWSGGDAYYDDSVKGRFAITRDAAKNTVHLQMNSLKPEDTAVYYCAAATYGYGSYTYGGSYDLWGQGTQVTVSS"
result = "< 0.96 EU/mg"

[[record]]
binder = "LG192A8 (VHH) VHH: EVQLVESGGGLVQAGGSLRLSCAASERTVIAYTMGWFRRAPGKERDFVAAMNWNGGNTIYADSAKGRFTISRDNAKNTVYLQMNSLKAEDTAVYYCAARPRFWGSYEYDYWGQGTQVTVSS"
result = "< 0.77 EU/mg"

[[record]]
binder = "LG191E4 (VHH) VHH: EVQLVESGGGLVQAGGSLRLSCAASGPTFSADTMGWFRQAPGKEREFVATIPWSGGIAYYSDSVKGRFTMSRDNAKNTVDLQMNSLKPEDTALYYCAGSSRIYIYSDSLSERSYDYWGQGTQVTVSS"
result = "< 0.63 EU/mg"


Task: Recall and state the measured ERA neutralizing antibody titer (RFFIT): EU/mg for LG192C4 (VHH) VHH: EVQLVESGGGLVQAGGSLRLSCEASGRTFSSYAMVGWFRQAPGKEREFVAAVTRWSGARTVYADSVKGRFTISRDNAENTVYLQMNSLKPEDTAVYTCAADSTNRNSGAVYYSWAYDYWGQGTQVTVSS .
Output: < 0.63 EU/mg

Task: Answer with the recorded ERA neutralizing antibody titer (RFFIT): EU/mg for the binder listed here: LG212G2 (VHH) VHH: EVQLVESGGGLVQPGGSLRLSCAASGFTFGSHDMSWVRQAPGKGSEWVSGIKSGGGSTLYADSVKGRFAISRDNAKNTLYLQMNSLKPEDTAVYYCATDLYGSTWYPGEDRGTQVTVSS
Output: < 0.51 EU/mg
